# Measured Target: T1, transforming growth factor-beta 1 (TGF-β1) (UniProt P01137 279-390)
# T1 construct: also called TGFb1; TGFB1
# T1 sequence (P01137 279-390 limits assumed): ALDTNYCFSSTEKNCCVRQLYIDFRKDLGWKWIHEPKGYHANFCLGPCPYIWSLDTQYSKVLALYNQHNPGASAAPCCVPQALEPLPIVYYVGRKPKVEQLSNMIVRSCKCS
# Test: ELISA, peptide on streptavidin plate, ligand 100 ng/ml
# Description: Biotinylated synthetic peptide fragments from CLPTM1 (JPT peptides, Germany) were immobilized in a streptavidin 96 well plate (#15500 Pierce) at 1 μM in PBS over night at +4° C. Plate was then washed 4 times in 300 μl PBS with 0.05% tween-20 (wash buffer). The plate was then blocked with PBS 1% BSA and 0.05% tween-20 (blocking buffer) for 1.5 hours at room temperature, then washed 4 times in wash buffer. […] OD 450-620 was measured in an ELISA reader.
Ends that are not written are not given here.
Measured Property: ELISA OD450 (OD450)

SGDYYPIIYFNDYWNLQKDYYPINESLASLPLRVSFCPLS (also: biotinylated, site not given here, also called peptide 25; GT1) [CLPTM1 peptide fragment of SEQ ID NO: 32] | 2.1
YPINESLASLPLRVSFCPLSG (also: biotinylated, site not given here, also called peptide 20) [CLPTM1 peptide fragment of SEQ ID NO: 27] | 0.043
RNLFPKDTLMNLHVYISEHEG (also: biotinylated, site not given here) [CLPTM1 peptide fragment of SEQ ID NO: 30] | 0.015

[P] PLDQYVKFDAVSGDYYPIIYFNDYWNLQKDYYPINESLA (also: biotinylated, site not given here, also called peptide 32; GT8) [CLPTM1 peptide fragment of SEQ ID NO: 39]
[Q] QAGPGGAPRVASRNLFPKDTG (also: biotinylated, site not given here) [CLPTM1 peptide fragment of SEQ ID NO: 12]
[R] SGDYYPIIYFNDYWNLQKDYYPINESLA (also: biotinylated, site not given here, also called peptide 33; GT9) [CLPTM1 peptide fragment of SEQ ID NO: 40]
[S] GSIYIHVYFTKSGFHPDPRQG (also: biotinylated, site not given here) [CLPTM1 peptide fragment of SEQ ID NO: 16]
Thanks in advance: please rank these 4 entries by ELISA OD450, highest to lowest. A complete answer lists every label in the requested sequence.
R, P, S, Q
(R: 2.81 OD450, P: 1.86 OD450, S: 0.122 OD450, Q: 0.003 OD450)
